protocol: Brain exposure / brain penetration (Table H)
Format: in vivo, rat
settings: rat, brain/plasma, iv, 1 mg/kg; 1 MPK i.v., 30 m; read-out: RATIO: Brain:plasma (Direct), 30 m
quantity-measured: Kp at 30 min
Reply briefly: the number, and no unit.

Input: What measured Kp at 30 min goes with O=C(COc1ccc2[nH]c(=O)oc2c1)N1CCN(c2ccc(Cl)c(Cl)c2)CC1 [drawing 775] ?
Output: 0.06

----------
protocol: Plasma half-life / plasma pharmacokinetics (Table G)
Format: in vivo
settings: rat, iv, 3 mg/kg, 3 MPK i.v., read-out: PK-i.v. t½ (converted)
quantity-measured: half-life

Input: What measured half-life goes with O=C1N(C[C@H](O)COc2ccc(O)cc2)CCN1c1ccc(Cl)cc1 [drawing 763] ?
Output: ≤ 48 min

Input: What measured half-life goes with O=c1[nH]c2ccc(OC[C@@H](O)CSc3nc4cc(Cl)c(Cl)cc4[nH]3)cc2o1 [drawing 766] ?
Output: ≤ 48 min

Input: What measured half-life goes with `CS(=O)(=O)Nc1ccc(OC[C@@H](O)CN2CCN(c3ccc(Cl)c(Cl)c3)CC2)cc1` ?
Output: 156 min

Input: What measured half-life goes with Oc1ccc(OC[C@@H](O)CSc2nc3cc(Cl)c(Cl)cc3[nH]2)cc1 [drawing 767] ?
Output: ~30 min

----------
protocol: Oral absorption (Table I)
Format: in vivo
settings: rat, plasma, 10 mg/kg, 10 MPK, 0-8 hr p.o., read-out: p.o. t½ hr (converted)
quantity-measured: half-life
Be sure to follow the number with its unit.

Input: What measured half-life goes with NC(=O)Nc1ccc(OC[C@@H](O)CN2CCN(c3ccc(Cl)cc3)CC2)cc1 [drawing 778] ?
Output: 6.46 h

----------
protocol: Plasma half-life / plasma pharmacokinetics (Table G)
Format: in vivo
settings: rat, ip, 10 mg/kg, 10 MPK i.p., read-out: PK t½ (hr) i.p.
quantity-measured: half-life

Input: What measured half-life goes with O=C(COc1ccc2[nH]c(=O)oc2c1)N1CCN(c2ccc(Cl)c(Cl)c2)CC1 [drawing 765] ?
Output: ~0.83 h

----------
protocol: Plasma half-life / plasma pharmacokinetics (Table G)
Assay type: in vivo
settings: rat, iv, 1 mg/kg, 1 MPK i.v., read-out: PK-i.v. t½ (converted)
Friendly reminder: half-life below 100 min is condition met, at or above is condition not met.

Input: Is half-life of Cc1ccc(N2CCN(C[C@H](O)COc3ccc4c(c3)CCC(=O)N4)CC2)cc1 [drawing 758] strictly below 100 min?
Output: condition met

Input: Is half-life of O=c1[nH]c2ccc(OC[C@@H](O)CN3CCN(c4ccc(F)c(F)c4)CC3)cc2[nH]1 [drawing 755] strictly below 100 min?
Output: condition not met

Input: Is half-life of Cc1ccc(N2CCN(C[C@H](O)COc3ccc4[nH]c(=O)oc4c3)CC2)cc1 [drawing 761] strictly below 100 min?
Output: condition met

Input: Is half-life of `O=C(COc1ccc2[nH]c(=O)[nH]c2c1)N1CCN(c2ccc(Cl)c(Cl)c2)CC1` strictly below 100 min?
Output: condition not met

Input: Is half-life of NC(=O)Nc1ccc(OC[C@@H](O)CN2CCN(c3ccc(Cl)cc3)C2=O)cc1 [drawing 762] strictly below 100 min?
Output: condition met

Input: Is half-life of O=c1[nH]c2ccc(OC[C@@H](O)CN3CCN(c4ccc(Cl)cc4)CC3)cc2o1 [drawing 760] strictly below 100 min?
Output: condition met

Input: Is half-life of NC(=O)Nc1ccc(OC[C@@H](O)CN2CCN(c3ccc(Cl)cc3)CC2)cc1 [drawing 754] strictly below 100 min?
Output: condition not met

Input: Is half-life of Oc1ccc(OC[C@@H](O)CN2CCN(c3ccc(Cl)cc3)CC2)cc1 [drawing 759] strictly below 100 min?
Output: condition met

Origin of measurements: patent US9079852B2
